test system: MS2 coat protein; assay: apparent KD of MS2 coat protein; higher = weaker reporter binding; settings: Eterna round: R107; input ligand: arginine 13.2 mM
apparent KD of MS2 coat protein values by entry
Please respond with the number in µM and leave the unit unwritten.

-- ask For ACAUCCAGAUUAAUCGUGGGCAUACUCGAUACCAGUAUUUUAAUCUACCCUUGGCAGCGACAUGAGGAUCACCCAUGUGCGAUGA [XTheo A #11] , what is its reported apparent KD of MS2 coat protein?
-- reply 0.0117

-- ask I'd like to know its apparent KD of MS2 coat protein. The sequence in question is GUCAGUUCUCAUGAUACCAGACCUGCCUCGGACAUGAGGAUCACCCAUGUACCCAAGCGAGUCCCUUGGCAGCAUGUGGCUUAAA [Ririatre]
-- reply 0.0247

-- ask Quick one: apparent KD of MS2 coat protein of UCGAUGGUAUCUGAUACCAGUAGCGUGCGUUACAUGAGGAUCACCCAUGUGCCUAUACUUUACCCUUGGCAGCAGUGGAUUCGAU [theeternabot_sameState_MS2_Theo_B_22] ?
-- reply 0.0571

Further cases:
-- ask Endpoint output: apparent KD of MS2 coat protein of GGUCUCUGGAGCGAUACCAGCUUAAUUGUACUGGCCAGGUACAUGAGGAUCACCCAUGUAAGCCCUUGGCAGCGCUCCAGAGACC [#1 Exclusion - Theophylline B Attempt #12 (HarryS)] . Value?
-- reply 0.0106

-- ask May I ask what apparent KD of MS2 coat protein has been recorded for UGACAUUGCUCAGAUACCAGACAUGAGGAUCACCCAUGUACCAAGAAAACGUACAUAAAUGUCCCUUGGCAGCUGAGCAAUGUCU [TheoBX 10 #MS2Left #Theo2] ?
-- reply 0.175

-- ask Item ACAUGAGGAUCACCCAUGUAGCCUAGGGAAGGAGCGUCGUAAGAGACAGGUAGGUCGCCCGCAUGUGAGUCAUCCAUGACGAGGG [#18 Same State - Arginine A] has what recorded apparent KD of MS2 coat protein?
-- reply 0.0257

----------
tested on: MS2 coat protein; test: apparent KD of MS2 coat protein; designed switch direction (-1 OFF switch, 1 ON switch): -1; higher = weaker reporter binding; details: Eterna round: R95; input ligand: FMN 200 uM
Parameter: apparent KD of MS2 coat protein. Scope: all listed entries.
State the answer as a number, implicitly in nM.

# example entries with known answers
-- ask apparent KD of MS2 coat protein lookup needed for GCGAAAGAAAACAGGUGAAACAUGAGGAUCACCCAUGUCCUCAUUUGCUCGUCUUAUAAGCUAUGCGAAAGCAUAGC [Mat - Sensor v3 - turn-off var 1 - Eli Mod - D52] (puzzle: Sensor v3, turn-off variant 1) , thanks.
-- reply 173

-- ask What does the record list as apparent KD of MS2 coat protein for CUUUUGUGAGGAUAUCAGUAGUAAAAAAAUAAAAUUACUACUGAGAAGGCACAUGAGGAUCACCCAUGUUCCUU [salish99_ex4_r3_010] (puzzle: Exclusion 4) ?
-- reply 28.4

-- ask I am curious: what apparent KD of MS2 coat protein value has been reported for GAGAAACAUGAGGAUCACCCAUGUAAGGAUAUGCUGAAAAUCACGGAUUAAUCGUGCAGCAGAAGGUACAAAGG [Mat - Mod of my Eli Mod D42] (puzzle: Exclusion 1) ?
-- reply 142

-- ask // lookup apparent KD of MS2 coat protein for GGUUUUUUUUUCCUUUCUUACAUGAGGAUCACCCAUGUUUCUUGUCGUGCUCGCGUUGCUCGUCUGUCUGUCUGUUG [salish99_TOv1_r3_075(!)] (puzzle: Sensor v3, turn-off variant 1)
-- reply 49.7

-- ask Bench note: what apparent KD of MS2 coat protein did GGCGGGACAGGAUAUCUAGCACUAAACAUGAGGAUCACCCAUGUGGUGGUCGCAGGUGUCAGAGAAGGGUCAAAAG [Atenabe] (puzzle: Exclusion 5) show?
-- reply 193

-- ask Given the sequence CUGGUCCGAGGAUAUAUUUUGUGAAACAUGAGGAUCACCCAUGUAAUAAAAUGGAUAUAAAUAGAAGGCGGACUAG [Mat - Exclusion 5 - JL mod - D41] (puzzle: Exclusion 5) , what is its reported apparent KD of MS2 coat protein?
-- reply 25.1

-- ask Could you tell me which apparent KD of MS2 coat protein is on file for GGUUGUUGUUUCCGUUCUUACAUGAGGAUCACCCAUGUUUCUUGUCGUGCUCGCGUUGCUCGUCUGGCUGUCUGUUG [salish99_TOv1_r3_071] (puzzle: Sensor v3, turn-off variant 1) ?
-- reply 52.3

-- ask // apparent KD of MS2 coat protein lookup, key: GAGGCAUGCCGAGGUCCACACAUGAGGAUCACCCAUGUAAUGACAGGCUUUUUACUCGUUUUACCGCUAUCGCGUUC [Gedied] (puzzle: Sensor v3, turn-off variant 1)
-- reply 14.9

-- ask Quick one: apparent KD of MS2 coat protein of AGUAACUAUCACGAAAGUGAUAGUUACACAAGUGAAUAAACAUGAGGAUCACCCAUGUCCUCAUUUGCUCGUCUUAU [Sensor 3 - 16] (puzzle: Sensor v3, turn-off variant 2) ?
-- reply 418

Please examine the following record next.
-- ask Fill in: apparent KD of MS2 coat protein of AAAAGCAAGUAAAGAUUCUACAUGAGGAUCACCCAUGUGCUCGUCUUAUAAAGUACUAUCACGAAAGUGAUAGUACA [Sensor 3, v1 - 43] (puzzle: Sensor v3, turn-off variant 1) is ___
-- reply 19.4

----------
Attribute: apparent KD of MS2 coat protein
tested on: MS2 coat protein; test: apparent KD of MS2 coat protein; higher = weaker reporter binding; settings: Eterna round: R107; input ligand: arginine 13.2 mM
Please answer in the form of a number followed by its unit of measurement.

Answered cases to consult:
-- ask // lookup apparent KD of MS2 coat protein for AGGACGGUCGGAAGGAGCGGUACAUGAGGAUCACCCAUGUACUUCUGGGCAUCCGUAGAGUGCCAGGUAGGUCGCCGAUUGCGGG [XArg-B10]
-- reply 0.0164 µM

-- ask Please report the recorded apparent KD of MS2 coat protein for AUCGCACCUGGUGAUACCAGCGUUUGCUCGCGACAUGAGGAUCACCCAUGUGGCCAGUGAUGCCCUUGGCAGCAUGGGCGGUGCA [Same State - Theophylline B (Freestyle 28)] .
-- reply 0.111 µM

We next turn to a different sequence, shown below.
-- ask Request the reported apparent KD of MS2 coat protein associated with AGCGACAUGCGUGAUACCAGCUACAUGAGGAUCACCCAUGUCAGCAGGAAACUGCUGUGUAGCCCUUGGCAGCACAGUGCAUGUC [Exclusion - Theophylline B (Freestyle 28)]
-- reply 0.0129 µM

----------
tested on: K4 kissing-loop RNA reporter; assay: apparent KD of K4 kissing-loop reporter; higher = weaker reporter binding; settings: Eterna round: R107; input ligand: theophylline 20 uM;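 further: bound reporter read as fluorescence of individual clusters on recovered sequencing chips by microscopy, with normalized cluster intensities fitted with a binding model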
quantityKind: apparent KD of K4 kissing-loop reporter (nM)
Use nM as the unit, but write only the number.

-- ask Endpoint output: apparent KD of K4 kissing-loop reporter of "GGUAGCAUGGCGGCCGCCACUUUAUACUCGGUCGUUGGCGUCGUAAGUGAUGUUUACAUUCGCAAAAGGACCGGGCCAUGCUACC" . Value?
-- reply 123

-- ask For the sequence shown here, GGAGUAACCUGGGAUACCAGUCGGAGGCCUAGGGAUCGGAGUGAUGUUCUGGGAUGUUUCGGCCCUUGGCAGCUCUGGGUCUCCG [#2 Exclusion - Theophylline B Attempt #2 (HarryS)] , give the reported apparent KD of K4 kissing-loop reporter.
-- reply 158

-- ask Form field: reported apparent KD of K4 kissing-loop reporter of UGCCGCAAGGCGAGCGCUCCCACUCCGGAAGGAGCGCCCGGAAGGGCAGGUAGGUCGCCGGAGUGAUGUUCCGGUGGAGGGCUCG [#2 Exclusion - Arginine A Attempt #26 (Inspired by Omei)]
-- reply 337

-- ask Suppose we examine the sequence AGGCACGAGCAAGGAUAUCGAGUAGAGUGAUGUUCUGCCUGGGUUGGCUCGGAAGGGCCUUCCCAGCGAGAAGGUGCUCGUGCCU [#2 Same State - FMN A Attempt #16 (HarryS)] ; what apparent KD of K4 kissing-loop reporter value has been reported?
-- reply 674

Now, please, on to the next sequence.
-- ask // query apparent KD of K4 kissing-loop reporter value for entry AGACUACCAACACUGUCAAUAGACAGUGACUAGGAUAUGCUGAUAAGCAGAAGGAGUGAUGUUCCUAAUAGAAAGGUAGUCAAAU [FmnAX 17 #SwitchBubble #StaticStem #K4Early]
-- reply 222

----------
test system: MS2 coat protein; assay: apparent KD of MS2 coat protein; higher = weaker reporter binding; conditions: Eterna round: R107; input ligand: none
quantityKind: apparent KD of MS2 coat protein
Could you write the number and then its unit?

-- ask Recorded apparent KD of MS2 coat protein for AUAAGUGUAAGAUACCGCACGCUGGAGGAAGGAGCGCGGAUUAACGCAGGUAGGUCGCCUCGUACAUGAGGAUCACCCAUGUGGC [#14 Same State - Arginine A] , please?
-- reply 22.5 nM

***
-- ask Which apparent KD of MS2 coat protein is listed for AACAUGAGGAUCACCCAUGUGUCCUCGAAACGAGGACCGGUACGGCCGCCACUCGAAAAGGUGUUGACGAAAAGUCAGCACCAAA [Mat - Exclusion - Trytophan A - D16] ?
-- reply 264 nM
